FYI, the data here is from ChEMBL document CHEMBL4819130.

Recorded IC50 for the following compounds
molecular target: Cocaine esterase (Homo sapiens, UniProt O00748); test: Inhibition of CES2 in human liver microsomes assessed as reduction in substrate hydrolysis using fluorescein diacetate as substrate preincubated for 3 mins followed by substrate addition and measured after 20 mins by fluorescence analysis
Sequence (O00748 whole entry): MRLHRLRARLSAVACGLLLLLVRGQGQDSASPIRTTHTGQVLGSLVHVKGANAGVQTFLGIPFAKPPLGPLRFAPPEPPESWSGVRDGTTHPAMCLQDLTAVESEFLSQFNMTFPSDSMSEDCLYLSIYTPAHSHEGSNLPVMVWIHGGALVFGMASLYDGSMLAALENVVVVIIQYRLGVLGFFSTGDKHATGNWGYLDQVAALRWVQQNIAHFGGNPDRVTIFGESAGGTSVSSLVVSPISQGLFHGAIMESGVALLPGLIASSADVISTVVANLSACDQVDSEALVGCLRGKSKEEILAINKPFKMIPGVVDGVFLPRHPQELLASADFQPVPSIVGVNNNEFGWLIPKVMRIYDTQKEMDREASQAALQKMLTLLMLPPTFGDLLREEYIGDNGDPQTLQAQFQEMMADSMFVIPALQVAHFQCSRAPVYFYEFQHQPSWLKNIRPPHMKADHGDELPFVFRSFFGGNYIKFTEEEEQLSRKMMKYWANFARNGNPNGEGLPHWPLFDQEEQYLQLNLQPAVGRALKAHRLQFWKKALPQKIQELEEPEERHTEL

compound	unitText	IC50
Cc1ccc(CC2C(=O)N(c3ccccc3)N=C2c2ccccc2)cc1 (stereo not drawn)	µM	5.16
CCCCCCCC/C=C\CCCCCCCC(=O)OCC(O)COP(=O)(O)O (stereo not drawn)	µM	1.57
Cc1ccc(C2=NN(c3ccccc3)C(=O)C2Cc2ccccc2)cc1 (stereo not drawn)	µM	3.82
